// data source = PubChem BioAssay AID1845219

tested on: SYO-1 tumor spheroids, viability % test/control; experiment: Anticancer human tumor SYO-1 cell line growth inhibition; conditions: second compound 0.3 µM; first compound 1 µM; stronger effect = lower value; spheroids with HUVEC and MSC
Please use Y for viability, T/C under 1% and N for everything else, ties included.

Record excerpt, results attached:
>>> qualitative_label("COc1ccc([C@@H](O)c2cc(-c3ncnc4cc(N5CCOCC5)ccc34)c(F)cc2Cl)nn1 + CC[C@@]1(O)C(=O)OCc2c1cc1n(c2=O)Cc2cc3c(CN(C)C)c(O)ccc3nc2-1")
"Y"
>>> qualitative_label("Cc1cc(C)c(CNC(=O)c2cc(-c3ccc(CN4CCOCC4)cc3)cc3c2cnn3C2CCCC2)c(=O)[nH]1 + CC[C@@]1(O)C(=O)OCc2c1cc1n(c2=O)Cc2cc3c(CN(C)C)c(O)ccc3nc2-1")
"N"
>>> qualitative_label("[2H]c1nc(C)nc([2H])c1-c1cc(NC[C@@H](C)c2cccc3c(C(=O)NC)ccnc23)ncn1 + CC[C@@]1(O)C(=O)OCc2c1cc1n(c2=O)Cc2cc3c(CN(C)C)c(O)ccc3nc2-1")
"N"
>>> qualitative_label("COc1cc(C)[nH]c(=O)c1CN1CCc2c(Cl)cc(C(OC)C3COC3)c(Cl)c2C1=O (stereo unspecified) + CC[C@@]1(O)C(=O)OCc2c1cc1n(c2=O)Cc2cc3c(CN(C)C)c(O)ccc3nc2-1")
"N"
>>> qualitative_label("CC(C)n1c(=O)n(C)c2cnc3cc(F)c(-c4ccc(OCCCN5CCCCC5)nc4)cc3c21 + CC[C@@]1(O)C(=O)OCc2c1cc1n(c2=O)Cc2cc3c(CN(C)C)c(O)ccc3nc2-1")
"N"

Query: I wonder whether CC1COCCN1c1cc(-c2ccnn2C)c2ccnc(-c3ccn[nH]3)c2n1 (stereo unspecified) + CC[C@@]1(O)C(=O)OCc2c1cc1n(c2=O)Cc2cc3c(CN(C)C)c(O)ccc3nc2-1 has viability, T/C below 1%. Can you tell?
Response: Y

----------
Overview of reported viability, T/C across a group of compounds:
system: SYO-1 tumor spheroids, viability % test/control; assay: Anticancer human tumor SYO-1 cell line growth inhibition; settings: second compound 94.9 pM; first compound 3 µM; stronger effect = lower value; spheroids with HUVEC and MSC;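 note: spheroids exposed to agents for 7 days before viability read; 100% = DMSO vehicle control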
Write it as a number; the unit % goes unstated.

Query: Requested read-out viability, T/C, target or system SYO-1 tumor spheroids, viability % test/control, entry Cc1sc2c(c1C)C(c1ccc(Cl)cc1)=NC(CC(=O)Nc1ccc(O)cc1)c1nnc(C)n1-2 (centres undefined) + COc1cc2c(cc1O)CCNC21CSC2c3c(OC(C)=O)c(C)c4c(c3C(COC1=O)N1C(O)C3Cc5cc(C)c(OC)c(O)c5C(C21)N3C)OCO4
Response: 0.28

Query: Again, but for CNCc1ccc(-c2cc(-c3nc(-c4ccc(S(=O)(=O)C(C)C)cc4)cnc3N)on2)cc1 + COc1cc2c(cc1O)CCNC21CSC2c3c(OC(C)=O)c(C)c4c(c3C(COC1=O)N1C(O)C3Cc5cc(C)c(OC)c(O)c5C(C21)N3C)OCO4
Response: 0.07

Query: Again, but for O=C(c1cc(Cc2n[nH]c(=O)c3ccccc23)ccc1F)N1CCN(C(=O)C2CC2)CC1 + COc1cc2c(cc1O)CCNC21CSC2c3c(OC(C)=O)c(C)c4c(c3C(COC1=O)N1C(O)C3Cc5cc(C)c(OC)c(O)c5C(C21)N3C)OCO4
Response: 4.14

Query: Again, but for Cn1ncnc1[C@H]1c2n[nH]c(=O)c3cc(F)cc(c23)N[C@@H]1c1ccc(F)cc1 + COc1cc2c(cc1O)CCNC21CSC2c3c(OC(C)=O)c(C)c4c(c3C(COC1=O)N1C(O)C3Cc5cc(C)c(OC)c(O)c5C(C21)N3C)OCO4
Response: 1.06

----------
test system: SYO-1 tumor spheroids, viability % test/control; assay: Anticancer human tumor SYO-1 cell line growth inhibition; conditions: second compound 31.6 µM; first compound 3 µM; stronger effect = lower value; spheroids with HUVEC and MSC;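 note: spheroids exposed to agents for 7 days before viability read; 100% = DMSO vehicle control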
Overview of reported viability, T/C across a group of compounds:
Write it as a number; the unit % goes unstated.

Known results for compounds:
>>> experimental_result("O=C(c1cc(Cc2n[nH]c(=O)c3ccccc23)ccc1F)N1CCN(C(=O)C2CC2)CC1 + Cn1nnc2c(C(N)=O)ncn2c1=O")
2.28
>>> experimental_result("CNCc1ccc(-c2cc(-c3nc(-c4ccc(S(=O)(=O)C(C)C)cc4)cnc3N)on2)cc1 + Cn1nnc2c(C(N)=O)ncn2c1=O")
0.11
>>> experimental_result("Cn1ncnc1[C@H]1c2n[nH]c(=O)c3cc(F)cc(c23)N[C@@H]1c1ccc(F)cc1 + Cn1nnc2c(C(N)=O)ncn2c1=O")
1.4

Continue with the next compound.
Query: Consider the compound Cc1sc2c(c1C)C(c1ccc(Cl)cc1)=NC(CC(=O)Nc1ccc(O)cc1)c1nnc(C)n1-2 (centres undefined) + Cn1nnc2c(C(N)=O)ncn2c1=O and give its measured viability, T/C.
Response: 0.62

----------
System: SYO-1 tumor spheroids, viability % test/control
Assay: Anticancer human tumor SYO-1 cell line growth inhibition;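 note: spheroids exposed to agents for 7 days before viability read; 100% = DMSO vehicle control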
Settings: second compound 0.00949 µM; first compound 0.0316 µM; stronger effect = lower value; spheroids with HUVEC and MSC
Protocol: Multicellular complex tumor spheroid response to DNA repair inhibitors in combination with DNA-damaging drugs This study explores the anticancer activities of DNA-damaging drugs and inhibitors of DNA damage repair, both as single agents and in combinations. […] Twenty-six patient-derived or established malignant cell lines were evaluated representing sarcoma, melanoma, small cell lung cancer (SCLC), non-small cell lung cancer (NSCLC), as well as bladder, ovarian and pancreatic cancers. […]
MEASUREMENT_KIND: viability, T/C (%)
Write it as a number; the unit % goes unstated.

Known results for compounds:
>>> experimental_result("[2H]c1nc(C)nc([2H])c1-c1cc(NC[C@@H](C)c2cccc3c(C(=O)NC)ccnc23)ncn1 + CC[C@@]1(O)C(=O)OCc2c1cc1n(c2=O)Cc2cc3c(CN(C)C)c(O)ccc3nc2-1")
25.9
>>> experimental_result("CC(C)n1c(=O)n(C)c2cnc3cc(F)c(-c4ccc(OCCCN5CCCCC5)nc4)cc3c21 + CC[C@@]1(O)C(=O)OCc2c1cc1n(c2=O)Cc2cc3c(CN(C)C)c(O)ccc3nc2-1")
2.88
>>> experimental_result("CC1COCCN1c1cc(-c2ccnn2C)c2ccnc(-c3ccn[nH]3)c2n1 (stereo unspecified) + CC[C@@]1(O)C(=O)OCc2c1cc1n(c2=O)Cc2cc3c(CN(C)C)c(O)ccc3nc2-1")
1.89
>>> experimental_result("Cc1cc(C)c(CNC(=O)c2cc(-c3ccc(CN4CCOCC4)cc3)cc3c2cnn3C2CCCC2)c(=O)[nH]1 + CC[C@@]1(O)C(=O)OCc2c1cc1n(c2=O)Cc2cc3c(CN(C)C)c(O)ccc3nc2-1")
10.4
>>> experimental_result("COc1ccc([C@@H](O)c2cc(-c3ncnc4cc(N5CCOCC5)ccc34)c(F)cc2Cl)nn1 + CC[C@@]1(O)C(=O)OCc2c1cc1n(c2=O)Cc2cc3c(CN(C)C)c(O)ccc3nc2-1")
41.7

Continue with the next compound.
Query: Consider the compound COc1cc(C)[nH]c(=O)c1CN1CCc2c(Cl)cc(C(OC)C3COC3)c(Cl)c2C1=O (stereo unspecified) + CC[C@@]1(O)C(=O)OCc2c1cc1n(c2=O)Cc2cc3c(CN(C)C)c(O)ccc3nc2-1 and give its measured viability, T/C.
Response: 22.7

----------
tested on: SYO-1 tumor spheroids, viability % test/control; experiment: Anticancer human tumor SYO-1 cell line growth inhibition; conditions: second compound 94.9 pM; first compound 0.316 µM; spheroids with HUVEC and MSC; active = viability on the fitted dose curve at most 10% of control; inactive = the rest;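 note: spheroids exposed to agents for 7 days before viability read; 100% = DMSO vehicle control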
I would appreciate it if you answered using one of these outcomes: class 1 for active, class 0 for inactive

>>> qualitative_label("CC(C)n1c(=O)n(C)c2cnc3cc(F)c(-c4ccc(OCCCN5CCCCC5)nc4)cc3c21 + COc1cc2c(cc1O)CCNC21CSC2c3c(OC(C)=O)c(C)c4c(c3C(COC1=O)N1C(O)C3Cc5cc(C)c(OC)c(O)c5C(C21)N3C)OCO4")
"class 0"

Query: Look up the recorded call for CC1COCCN1c1cc(-c2ccnn2C)c2ccnc(-c3ccn[nH]3)c2n1 (stereo unspecified) + COc1cc2c(cc1O)CCNC21CSC2c3c(OC(C)=O)c(C)c4c(c3C(COC1=O)N1C(O)C3Cc5cc(C)c(OC)c(O)c5C(C21)N3C)OCO4 in this test.
Response: class 1

Query: Again, but for COc1cc(C)[nH]c(=O)c1CN1CCc2c(Cl)cc(C(OC)C3COC3)c(Cl)c2C1=O (stereo unspecified) + COc1cc2c(cc1O)CCNC21CSC2c3c(OC(C)=O)c(C)c4c(c3C(COC1=O)N1C(O)C3Cc5cc(C)c(OC)c(O)c5C(C21)N3C)OCO4
Response: class 0

Query: Again, but for Cc1cc(C)c(CNC(=O)c2cc(-c3ccc(CN4CCOCC4)cc3)cc3c2cnn3C2CCCC2)c(=O)[nH]1 + COc1cc2c(cc1O)CCNC21CSC2c3c(OC(C)=O)c(C)c4c(c3C(COC1=O)N1C(O)C3Cc5cc(C)c(OC)c(O)c5C(C21)N3C)OCO4
Response: class 0

Query: Again, but for COc1ccc([C@@H](O)c2cc(-c3ncnc4cc(N5CCOCC5)ccc34)c(F)cc2Cl)nn1 + COc1cc2c(cc1O)CCNC21CSC2c3c(OC(C)=O)c(C)c4c(c3C(COC1=O)N1C(O)C3Cc5cc(C)c(OC)c(O)c5C(C21)N3C)OCO4
Response: class 0

Query: Again, but for [2H]c1nc(C)nc([2H])c1-c1cc(NC[C@@H](C)c2cccc3c(C(=O)NC)ccnc23)ncn1 + COc1cc2c(cc1O)CCNC21CSC2c3c(OC(C)=O)c(C)c4c(c3C(COC1=O)N1C(O)C3Cc5cc(C)c(OC)c(O)c5C(C21)N3C)OCO4
Response: class 0
